target: human F508del-CFTR (Homo sapiens, UniProt P13569, DEL508-508); assay: F508del-CFTR cell surface expression (corrector activity), DiscoveRx ß-galactosidase complementation chemiluminescence assay in recombinant U2OS cell line; settings: U2OS, in relation to the Emax of the corrector lumacaftor (=100%); U2OS cell line, 16h compound incubation; arithmetic mean values;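 further: U2OS cells co-expressing ProLink-tagged F508del-CFTR and a membrane-anchored enzyme acceptor, where more surface CFTR restores β-galactosidase activity measured by chemiluminescence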
Sequence (P13569 with tags, fused parts or gaps DEL508-508): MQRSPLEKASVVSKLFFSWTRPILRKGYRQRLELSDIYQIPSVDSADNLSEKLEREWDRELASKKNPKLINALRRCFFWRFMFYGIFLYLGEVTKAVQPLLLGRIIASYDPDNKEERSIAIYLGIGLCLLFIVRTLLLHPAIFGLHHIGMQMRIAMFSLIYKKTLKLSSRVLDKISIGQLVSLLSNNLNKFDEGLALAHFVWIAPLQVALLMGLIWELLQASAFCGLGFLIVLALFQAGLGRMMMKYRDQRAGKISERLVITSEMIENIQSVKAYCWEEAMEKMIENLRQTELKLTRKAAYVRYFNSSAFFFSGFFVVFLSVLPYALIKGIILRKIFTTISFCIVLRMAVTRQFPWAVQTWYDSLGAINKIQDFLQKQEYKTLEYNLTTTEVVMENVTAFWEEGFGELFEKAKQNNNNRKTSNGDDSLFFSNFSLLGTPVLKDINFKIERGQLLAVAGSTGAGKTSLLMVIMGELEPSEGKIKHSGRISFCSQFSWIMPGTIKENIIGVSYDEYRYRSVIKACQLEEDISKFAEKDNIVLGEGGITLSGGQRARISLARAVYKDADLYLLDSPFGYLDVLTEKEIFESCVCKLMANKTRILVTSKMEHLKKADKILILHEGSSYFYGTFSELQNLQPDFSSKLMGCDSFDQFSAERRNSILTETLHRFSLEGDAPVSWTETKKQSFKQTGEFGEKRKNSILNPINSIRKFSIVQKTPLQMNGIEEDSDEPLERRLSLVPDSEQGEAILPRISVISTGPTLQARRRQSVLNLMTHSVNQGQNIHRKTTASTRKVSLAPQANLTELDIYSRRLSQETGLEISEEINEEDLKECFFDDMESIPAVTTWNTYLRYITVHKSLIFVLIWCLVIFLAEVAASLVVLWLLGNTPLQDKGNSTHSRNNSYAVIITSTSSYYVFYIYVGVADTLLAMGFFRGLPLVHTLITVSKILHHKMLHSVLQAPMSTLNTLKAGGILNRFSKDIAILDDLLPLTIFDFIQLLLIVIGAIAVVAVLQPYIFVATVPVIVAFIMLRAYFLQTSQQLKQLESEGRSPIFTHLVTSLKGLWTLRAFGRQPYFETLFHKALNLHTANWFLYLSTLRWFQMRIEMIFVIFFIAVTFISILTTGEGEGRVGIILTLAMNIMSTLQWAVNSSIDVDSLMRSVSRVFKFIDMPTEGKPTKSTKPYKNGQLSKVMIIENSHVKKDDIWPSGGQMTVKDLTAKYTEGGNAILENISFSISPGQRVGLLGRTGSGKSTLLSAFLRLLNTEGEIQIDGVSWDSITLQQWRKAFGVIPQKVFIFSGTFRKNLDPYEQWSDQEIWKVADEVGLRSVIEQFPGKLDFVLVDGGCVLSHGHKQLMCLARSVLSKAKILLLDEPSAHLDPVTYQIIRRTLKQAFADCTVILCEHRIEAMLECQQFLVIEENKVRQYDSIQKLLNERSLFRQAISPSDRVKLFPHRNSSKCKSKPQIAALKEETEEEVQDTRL
property: Emax (%)
Numbers only, in %.

Please review the entries below; each comes with its answer.
COc1cccc2c1C(=O)N[C@H](C(=O)NCCc1ccc3c(c1)OCO3)CC(=O)N(C)[C@@H](CC1CC1)C(=O)N(CCC1CCCCC1)CC(=O)N[C@H](Cc1ccccc1)CO2 (mixture of isomers)	186
COc1ccc2c(c1)C(=O)N[C@H](C(=O)NCCc1ccc3c(c1)OCCC3)CC(=O)N(C)[C@@H](CC(C)C)C(=O)N(C)CC(=O)N[C@H](Cc1ccccc1)CO2	174
COc1cccc(CCNC(=O)[C@@H]2CC(=O)N(C)[C@@H](CC(C)C)C(=O)N3CCN(C4CCC4)C[C@@H]3C(=O)N[C@H](Cc3ccccc3)COc3cnc4ccccc4c3C(=O)N2)c1	319
COc1cccc(CCNC(=O)[C@@H]2CC(=O)N(C)[C@@H](CC(C)C)C(=O)N3CCOC[C@@H]3C(=O)N[C@H](Cc3ccccc3)COc3cnc4ccccc4c3C(=O)N2)c1OC	282
CC(C)C[C@H]1C(=O)N2CCOC[C@@H]2C(=O)N[C@H](Cc2ccccc2)COc2ccc3ccccc3c2C(=O)N[C@H](C(=O)NCCc2nc3c(s2)CCC3)CC(=O)N1C	229

Each molecule below has a recorded value; state its Emax.
1. CC(C)C[C@H]1C(=O)N2CCOC[C@@H]2C(=O)N[C@H](Cc2ccccc2)COc2cnc3ccccc3c2C(=O)N[C@H](C(=O)NCCc2cccc(-n3nccn3)c2)CC(=O)N1C
2. COc1cccc(CCNC(=O)[C@@H]2CC(=O)N(C)[C@@H](CC3CCCCC3)C(=O)N(CC[C@H]3CCCCO3)CC(=O)N[C@H](Cc3ccccc3)COc3ccc4ccccc4c3C(=O)N2)c1 (racemic)
3. CC(C)C[C@H]1C(=O)N(CCC2CCOCC2)CC(=O)N[C@H](Cc2ccccc2)COc2cc3c(cc2C(=O)N[C@H](C(=O)NCCc2ccc4c(c2)OCO4)CC(=O)N1C)OCO3
4. COc1cccc2c1C(=O)N[C@H](C(=O)NCCc1cncnc1)CC(=O)N(C)[C@@H](CC(C)C)C(=O)N(CCC1CCCCC1)CC(=O)N[C@H](Cc1ccccc1)CO2
5. COc1cccc(CCNC(=O)[C@@H]2CC(=O)N(C)[C@@H](CC3CCCCC3)C(=O)N(C[C@H]3CCCCO3)CC(=O)N[C@H](Cc3ccccc3)COc3ccc4ccccc4c3C(=O)N2)c1 (racemic)
6. COc1cnn(CCNC(=O)[C@@H]2CC(=O)N(C)[C@@H](CC(C)C)C(=O)N(C)C3(CC3)C(=O)N[C@H](Cc3ccccc3)COc3cnc4ccc(F)cc4c3C(=O)N2)c1
7. Cc1oncc1CCNC(=O)[C@@H]1CC(=O)N(C)[C@@H](CC(C)C)C(=O)N2CCCC[C@@H]2C(=O)N[C@H](Cc2ccccc2)COc2cnc3ccccc3c2C(=O)N1
8. COc1cccc(CCNC(=O)[C@@H]2CC(=O)N(C)[C@@H](CC(C)C)C(=O)N3CCN(C4CC4)C[C@H]3C(=O)N[C@H](Cc3ccccc3)COc3cnc4ccccc4c3C(=O)N2)c1

result:
[256, 136, 102, 102, 144, 275, 246, 163]

Each molecule below has a recorded value; state its Emax.
1. CC(C)C[C@H]1C(=O)N2CCOC[C@@H]2C(=O)N[C@H](Cc2ccccc2)COc2cnc3ccccc3c2C(=O)N[C@H](C(=O)NCCc2csc(C(C)C)n2)CC(=O)N1C
2. COc1ccc(CCNC(=O)[C@@H]2CC(=O)N(C)[C@@H](CC(C)C)C(=O)N(C)CC(=O)N[C@H](Cc3ccccc3)COc3cc(OC)c(OC)cc3C(=O)N2)cc1

result:
137
118

Each molecule below has a recorded value; state its Emax.
1. [2H]C([2H])([2H])Oc1cccc(CCNC(=O)[C@@H]2CC(=O)N(C)[C@@H](CC(C)C)C(=O)N(CCC3CCCCC3)CC(=O)N[C@H](Cc3ccccc3)COc3ccc4nc(C)oc4c3C(=O)N2)c1
2. Cc1cnc(CCNC(=O)[C@@H]2CC(=O)N(C)[C@@H](CC(C)C)C(=O)N3CCCC[C@@H]3C(=O)N[C@H](Cc3ccccc3)COc3ccc4ncn(C)c4c3C(=O)N2)s1 (racemic)

result:
1: 322; 2: 131

Each molecule below has a recorded value; state its Emax.
1. CC(C)C[C@H]1C(=O)N2CCOC[C@@H]2C(=O)N[C@H](Cc2ccccc2)COc2cnc3ccccc3c2C(=O)N[C@H](C(=O)NCCc2ccc(Br)cc2)CC(=O)N1C
2. COc1ccc(CCNC(=O)[C@@H]2CC(=O)N(C)[C@@H](CC(C)C)C(=O)N3CCOC[C@@H]3C(=O)N[C@H](Cc3ccccc3)COc3cnc4ccccc4c3C(=O)N2)c(F)c1
3. COc1cccc2c1C(=O)N[C@H](C(=O)NCCc1ccc3c(c1)OCO3)CC(=O)N(C)[C@@H](CC(C)C)C(=O)N(CC[C@H]1CCCCO1)CC(=O)N[C@H](Cc1ccccc1)CO2 (racemic)

result:
136
237
193
